tested on: Schistosoma mansoni schistosomula (Liberian); assay: drug effect (1 - score/DMSO control score) (fraction); higher = more antischistosomal effect, active = 0.5 or more; extreme values may be limits of the assay; settings: 24 h; 10 µM
In this exercise, the only acceptable responses are Yes (active), No (inactive)

Reference set (8 entries):
COMPOUND | GROUP_LABEL
c1ccc(-c2[nH]c3ccccc3c2C(c2ccccn2)N2CCCC2)cc1 (configuration not stated) | Yes
Nc1nccc2ccc(-c3ccc4nccn4c3)cc12 | Yes
CC(C)C(Oc1cccc2ccccc12)C(=O)O (configuration not stated) | No
CC1=Nc2ccc(Cl)cc2C(c2ccccc2)N1CCNC(=O)CN(C)C (configuration not stated) | No
COc1ccc(C2=NN(C3CCCCCC3)C(=O)C2(C)C)cc1OCc1ccccn1 | No
CC1COC2(CCN(c3nc(=O)c4cc(C(F)(F)F)cc([N+](=O)[O-])c4s3)CC2)O1 (configuration not stated) | No
Cc1cccc(-c2nc(Nc3ccncn3)c3sccc3n2)n1 | No
Cn1ccnc1CNCCS(=O)(=O)c1cccc(Nc2ccc(-c3cccc(F)c3)cn2)c1 | No

q: Record lookup: outcome of this test for Cc1cc(C)n(-c2ccc(NC(=O)C3CCN(Cc4cnc(C)s4)CC3)cc2)n1 ?
a: No

q: Record lookup: outcome of this test for CCCCc1ccc(C(=O)Nc2nccc3ccccc23)nc1 ?
a: No

q: Record lookup: outcome of this test for COC(=O)c1c(NC(=O)c2cc3ccccc3oc2=O)sc2c1CCN(Cc1ccccc1)C2 ?
a: No

q: Record lookup: outcome of this test for CNC(=O)CNc1nc(-c2ccccn2)nc2scc(-c3ccccc3)c12 ?
a: No

q: Record lookup: outcome of this test for CCCCCCCCCCCCCCCCOP(=O)([O-])OCC[N+](C)(C)C ?
a: No

q: Record lookup: outcome of this test for COc1ccc(-c2cc(NC(=O)c3ccc(F)cc3Cl)ccc2OC)cc1 ?
a: No

q: Record lookup: outcome of this test for Nc1ccc2ncnc(Nc3ccc(OCc4cccc(F)c4)c(Cl)c3)c2c1 ?
a: No

q: Record lookup: outcome of this test for CCc1nc2ccc(C(=O)NCc3ccc4c(c3)OCO4)cn2c1N(C)Cc1cccs1 ?
a: No

q: Record lookup: outcome of this test for CN1CCC(c2cc(-c3ccncc3)c(-c3ccc(F)cc3)[nH]2)CC1 ?
a: No

q: Record lookup: outcome of this test for O=C(Nc1cccc(-c2ccc(NCCCN3CCCC3)nc2)c1)c1ccccc1 ?
a: No

q: Record lookup: outcome of this test for OC[C@H]1O[C@@H](n2c3ccc(Cl)cc3c3c(-c4cc5ccccc5o4)ncnc32)C(O)[C@H]1O (some centres not stated) ?
a: No

q: Record lookup: outcome of this test for COc1ccc2nc(C)cc(OCC(=O)Nc3ccccc3OC)c2c1 ?
a: No

q: Record lookup: outcome of this test for Cc1nnc(NCc2cccc(Cl)c2)c2ccccc12 ?
a: No

q: Record lookup: outcome of this test for COc1ccc2nc(C)cc(OCC(=O)NCc3ccccc3)c2c1 ?
a: No

Origin of the recorded values: the supplement of paper PMC6805474
